target: OGDH (Rattus norvegicus, UniProt Q5XI78); assay: OGDH reaction (OG saturation) catalyzed by the enzyme preparation from rat liver; assay type: biochemical; design: the tissue fractions with the complexes enriched to a degree allowing for a robust detection of the enzymatic activities, have been used; from tissue; conditions: Ki, MM, Michaelis-Menten approximation
QUANTITY: Ki (µM)
Give just the numeric value; µM need not be written.

Name the recorded Ki for O=C(O)CCC(=O)P(=O)(O)O [SP, succinyl phosphonate] .
9.6

---

Biological target: OGDH (Rattus norvegicus)
Sequence (Q5XI78 41-1023): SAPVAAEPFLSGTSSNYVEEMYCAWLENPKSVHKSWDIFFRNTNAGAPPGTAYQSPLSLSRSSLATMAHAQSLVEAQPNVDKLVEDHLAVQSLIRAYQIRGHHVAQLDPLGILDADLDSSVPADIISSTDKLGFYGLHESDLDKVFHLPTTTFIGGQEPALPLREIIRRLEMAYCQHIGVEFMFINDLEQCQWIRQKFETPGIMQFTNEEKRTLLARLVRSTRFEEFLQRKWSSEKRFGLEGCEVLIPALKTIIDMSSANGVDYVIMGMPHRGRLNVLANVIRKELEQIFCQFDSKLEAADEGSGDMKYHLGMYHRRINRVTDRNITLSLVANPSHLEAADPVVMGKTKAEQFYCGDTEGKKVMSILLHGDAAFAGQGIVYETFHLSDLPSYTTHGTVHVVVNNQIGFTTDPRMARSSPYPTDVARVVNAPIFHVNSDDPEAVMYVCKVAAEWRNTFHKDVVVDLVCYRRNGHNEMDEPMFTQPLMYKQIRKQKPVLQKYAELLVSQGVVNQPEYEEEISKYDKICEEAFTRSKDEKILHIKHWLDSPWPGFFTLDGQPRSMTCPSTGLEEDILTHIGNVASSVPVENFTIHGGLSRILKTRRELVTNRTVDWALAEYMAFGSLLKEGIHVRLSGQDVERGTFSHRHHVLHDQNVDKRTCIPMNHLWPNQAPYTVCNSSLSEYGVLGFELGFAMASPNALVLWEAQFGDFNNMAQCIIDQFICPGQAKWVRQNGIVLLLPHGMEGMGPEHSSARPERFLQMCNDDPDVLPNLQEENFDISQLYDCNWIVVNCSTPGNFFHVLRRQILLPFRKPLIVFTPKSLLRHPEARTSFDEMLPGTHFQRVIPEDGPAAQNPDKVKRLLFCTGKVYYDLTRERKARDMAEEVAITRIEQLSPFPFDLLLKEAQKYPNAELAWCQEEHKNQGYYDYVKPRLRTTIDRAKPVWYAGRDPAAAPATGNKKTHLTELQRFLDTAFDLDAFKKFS
Sequence (Q01205 69-454 partner): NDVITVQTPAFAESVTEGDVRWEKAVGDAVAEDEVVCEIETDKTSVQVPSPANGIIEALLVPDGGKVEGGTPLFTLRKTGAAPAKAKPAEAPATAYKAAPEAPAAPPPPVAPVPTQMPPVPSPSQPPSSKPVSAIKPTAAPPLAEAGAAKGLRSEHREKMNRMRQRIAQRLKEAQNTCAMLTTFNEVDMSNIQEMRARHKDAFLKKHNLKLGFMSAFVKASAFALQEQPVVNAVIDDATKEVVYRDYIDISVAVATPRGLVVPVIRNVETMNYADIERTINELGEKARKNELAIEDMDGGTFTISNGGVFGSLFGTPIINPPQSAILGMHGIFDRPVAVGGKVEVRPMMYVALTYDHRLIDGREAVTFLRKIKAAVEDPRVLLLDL
Sequence (Q6P6R2 36-509 partner): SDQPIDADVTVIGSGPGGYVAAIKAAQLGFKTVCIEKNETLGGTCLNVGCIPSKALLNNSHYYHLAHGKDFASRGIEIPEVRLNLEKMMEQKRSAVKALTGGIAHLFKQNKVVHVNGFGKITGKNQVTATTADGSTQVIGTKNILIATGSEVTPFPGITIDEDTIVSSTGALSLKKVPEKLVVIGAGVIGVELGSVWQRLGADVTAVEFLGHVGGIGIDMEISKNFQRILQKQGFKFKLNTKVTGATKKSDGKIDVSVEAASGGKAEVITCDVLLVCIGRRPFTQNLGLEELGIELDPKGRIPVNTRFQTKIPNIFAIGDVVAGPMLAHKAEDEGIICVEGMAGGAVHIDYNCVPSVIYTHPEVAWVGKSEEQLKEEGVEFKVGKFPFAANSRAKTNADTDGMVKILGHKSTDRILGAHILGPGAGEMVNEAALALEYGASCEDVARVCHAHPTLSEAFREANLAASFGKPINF
Assay: OGDH reaction (OG saturation) catalyzed by the enzyme preparation from rat heart
Assay type: biochemical
Parameters: the tissue fractions with the complexes enriched to a degree allowing for a robust detection of the enzymatic activities, have been used; from tissue; host or cells: rat heart
Conditions: Ki, MM, OGDH reaction, heart; Michaelis-Menten approximation
QUANTITY: pKi
# pKi = -log10(concentration in molar units)

Name the recorded pKi for O=C(O)CCC(=O)P(=O)(O)O [SP, succinyl phosphonate] .
4.70
